Recorded measurements of melting point, one per entry

CCCc1c([C@@H]2C[C@H]2c2ccccc2)oc2ccc(C(=O)O)cc2c1=O (relative stereo) | 195 to 196 °C
Cc1cc(S(=O)(=O)NC(C)C)c2c(C)ccc(C(C)C)cc1-2 | 128 to 130 °C
COCC1CN(c2ccc3ccc(OC)cc3c2)C(=O)O1 (stereo not given) | 95.5 to 96.5 °C
O=C1c2ccccc2C(=O)c2sc(-c3ccccn3)nc21 | > 260 °C

Now look at this one.
Ask: Give the measured melting point of Nc1nc(N)c(-c2ccc(Cl)cc2Cl)c(CF)n1 .
Reply: 210 to 211 °C

----------
Experimental endpoint: melting point

COc1ccnc(CCc2nc3cc(-c4ccc(S(=O)(=O)N5CCOCC5)cc4)cnc3[nH]2)c1 | 210 to 212 °C
Cc1ccc(C2C(=O)CCCC2=O)c(C)c1 | 143 to 145 °C
Clc1ccc2c3c([nH]c2c1)C1=CCCCN1CC3 | 165 °C

Ask: Give the measured melting point of COc1ccc(CN(CCN(C)CCCCCCNC(=C[N+](=O)[O-])NCCCOc2cccc(CN3CCCCC3)c2)c2ccccn2)cc1 .
Reply: 73 °C

Ask: Give the measured melting point of CCC(=O)c1c(CC)n(Cc2ccccc2Cl)c2cc(-c3nnn[nH]3)ccc12 .
Reply: 178 to 181 °C

Ask: Give the measured melting point of CC(C)CCOc1c(-c2ccc(S(N)(=O)=O)cc2)cnn(-c2ccc(F)c(F)c2)c1=O .
Reply: 149 to 151 °C

Ask: Give the measured melting point of O=C(NCc1cccnc1)Nc1ccc([N+](=O)[O-])cc1 .
Reply: 220 to 222 °C

Ask: Give the measured melting point of N#Cc1cccc(-n2c(=O)c(C(=O)Cc3ccccc3)c(O)c3cccnc32)c1 .
Reply: 216 to 218 °C

Ask: Give the measured melting point of O=C(O)CCC1CCN(C(=O)CN2CCN(c3ccncc3)CC2)CC1 .
Reply: 90 to 92 °C

----------
Experimental endpoint: melting point

Study these solved cases before continuing.
CC(C)(C)OC(=O)N[C@H]1CC[C@H](CCN2CCN(c3nccc4c3OCC4)CC2)CC1 | 141 °C
CN(C)c1ncc2c(=O)n(CCc3ccccn3)sc2n1 | 134 to 136 °C
CCOC(=O)C1=C(C)N=C(N)C(CC)(C(=O)OCC)C1c1cccc([N+](=O)[O-])c1 (stereo unspecified) | 122 to 123 °C

Ask: Give the measured melting point of CC1=C(C(=O)O)C(c2ccccc2[N+](=O)[O-])C(C(=O)O)=C(C)N1 .
Reply: 120 to 122 °C

Ask: Give the measured melting point of Cc1ccn2cc(CS)nc2c1 .
Reply: 164 to 168 °C

Ask: Give the measured melting point of COC(=O)c1ncn(Cc2ccc([N+](=O)[O-])cc2)n1 .
Reply: 175 to 177 °C

Ask: Give the measured melting point of COC(=O)CC[C@@H](Cc1ccc(OCc2ccccc2)cc1)NC(=O)CCCCCCc1ccccc1 .
Reply: 94.8 to 95.9 °C

Ask: Give the measured melting point of CCCc1nc2cccc(C(=O)OC)c2n1Cc1ccc(-c2ccccc2-c2nc(=O)o[nH]2)cc1 .
Reply: 224 to 226 °C

----------
Experimental endpoint: melting point

NS(=O)(=O)CCCOc1ccc2ncnn2n1 | 145 to 147 °C

Ask: Give the measured melting point of Cc1c(-c2ccc(O)cc2)n(Cc2ccc(OCCN3CCCC(C)C3)cc2)c2ccc(O)cc12 (stereo unspecified) .
Reply: 121 to 123 °C

Ask: Give the measured melting point of CC(C)n1nc(-c2nc(C(N)=O)c(N)nc2Cl)ccc1=O .
Reply: > 250 °C

Ask: Give the measured melting point of O=c1[nH]nc(-c2nc3ccccc3o2)[nH]1 .
Reply: > 300 °C

Ask: Give the measured melting point of CN(C)C=C(C=O)c1ccc(Cl)cc1Cl .
Reply: 112 to 114 °C

Ask: Give the measured melting point of CC1(C)CCC(C)(C)c2cc3cc(-c4ccc(C(=O)O)o4)ccc3cc21 .
Reply: 229 to 230 °C

Ask: Give the measured melting point of COC(=O)c1nc2cccc(C(F)(F)F)c2c(O)c1C(=O)OC .
Reply: 180 to 182 °C

Ask: Give the measured melting point of CCN1c2ncc(Cc3cccc(F)c3)cc2C(=O)N(C)c2ccc(Cl)nc21 .
Reply: 104 to 105 °C

Ask: Give the measured melting point of CN1C(=O)c2cscc2Nc2cc(Cl)c(Cl)cc21 .
Reply: 265 to 267 °C

Ask: Give the measured melting point of Cc1c(Cc2ccc(Cl)cc2)sc2nc(N)[nH]c(=O)c12 .
Reply: 300 to 320 °C

Ask: Give the measured melting point of CCCC(O)(Cn1nc[nH]c1=S)c1ccc(Cl)cc1Cl (stereo unspecified) .
Reply: 148 °C

Ask: Give the measured melting point of O=C(C1CC1)N1CCC2C1CCCC2(O)c1ccc(Cl)cc1 (stereo unspecified) .
Reply: 167 to 169 °C

----------
Recorded measurements of melting point, one per entry

Study these solved cases before continuing.
CCCn1cnc2c1c(=O)n(CCCCOc1ccc(OC)cc1)c(=O)n2C | 61 to 62 °C
COc1nc(Br)c(C)nc1NS(=O)(=O)c1cccc(Cl)c1Cl | 146 to 148 °C
O=C(O)CCOc1cccc2c1CCc1sc(SC(c3ccccc3)c3ccccc3)nc1-2 | 156 to 158 °C
Cc1cc(Cl)c(N)c([N+](=O)[O-])c1 | 68.5 to 69.5 °C
Cc1cc2cnn(-c3ccccc3)c2nc1OCc1ncnn1C | 145 to 146 °C
O=C1CN(c2ccccc2)C(=O)N1C(=O)c1ccccc1Oc1ccccc1 | 127 to 128 °C
COc1ccc2c(c1OC)CN(Cc1ccccc1)CCc1cc3c(cc1CC2)OCO3 | 75 to 78 °C
O=C(Cc1c(-c2ccccc2)c2cc(CN3CCNCC3)c(Cl)cc2oc1=O)Nc1ccc(Cl)cc1C(F)(F)F | 237 to 242 °C

Now look at this one.
Ask: Give the measured melting point of COc1ccc(C(=O)Nc2cc(NC(=O)c3cccc(N4CCOCC4)c3)ccc2Cl)cc1OC .
Reply: 148 °C

----------
Experimental endpoint: melting point

Study these solved cases before continuing.
COC(=O)c1cscc1Nc1ccc(F)cc1[N+](=O)[O-] | 164 °C
CN(CCO)Cc1cc(C(=O)c2ccc(Cl)cc2)cc(C(C)(C)C)c1O | 126 to 127 °C
CS(=O)(=O)c1ccc(-c2cnn(Cc3ccncc3)c(=O)c2-c2ccc(F)cc2)cc1 | 153 to 156 °C

Now look at this one.
Ask: Give the measured melting point of CC(=O)N(CC(=O)O)c1c(C(=O)c2ccccc2)[nH]c2cc(Cl)ccc12 .
Reply: 148 to 154 °C

----------
Experimental endpoint: melting point

CC1Cc2c(c(Cl)cc(F)c2N2C(=O)c3ccccc3C2=O)O1 (configuration not stated) | 158 to 160 °C
CNC(=O)CCNC(=O)NOCCCl | 125 to 126 °C
COC(=O)c1ccccc1C=C1C(=O)Nc2ccc(S(=O)(=O)NC(C)C)cc21 | 271 to 273 °C
COC(=O)Cc1cn(C)nc1OCc1ccc(OCc2csc(-c3ccccc3)n2)nc1 | 85 to 86 °C

Ask: Give the measured melting point of OCC(O)CSSc1nc2ccccc2s1 (configuration not stated) .
Reply: 115 to 120 °C

Ask: Give the measured melting point of CC(C)(/C=C/Br)C(=O)O .
Reply: 30 °C

----------
Recorded measurements of melting point, one per entry

Study these solved cases before continuing.
CCNC(=N)Nc1nc2ccc(OC(F)(F)F)cc2s1 | 127 to 129 °C
CC(C)c1cccc(C(C)C)c1NC(=O)NCC1(c2ccc(-c3ccccc3)cc2)CCC1 | 177 to 179 °C
COc1cc(CNC(=O)c2nc3cnn(CCCc4ccccc4)c3c(=O)[nH]2)ccc1F | 155 to 157 °C
ON=c1cc(-c2cc3cccn3cn2)oc2cccc(C(F)(F)F)c12 | 255 to 257 °C

Now look at this one.
Ask: Give the measured melting point of Clc1ccc(N2CCN(Cc3cn4cc(Br)ccc4n3)CC2)cc1 .
Reply: 154 to 155 °C

----------
Experimental endpoint: melting point

Study these solved cases before continuing.
CN(C)NC(=O)c1cc(S(C)(=O)=O)c(Cl)cc1NCc1ccco1 | 90 to 104 °C
C(=C(c1ccccc1)N(c1ccccc1)c1ccccc1)c1cccc2ccccc12 | 170 to 172 °C
CCCc1c(C(=O)C(C)C)c2ccc(C(N)=O)cc2n1Cc1ccccc1C | 190 to 191 °C
CCOC(=O)C(=CNc1nonc1C)C(=O)c1cc(F)c(F)cc1F | 104 to 107 °C
c1ccc(C2CNc3c(cnc4ccccc34)O2)cc1 (stereo not given) | 194 to 195 °C

Ask: Give the measured melting point of CCc1nc2c(C)cc(C)nc2n1Cc1ccc(C(=C(Cl)C(=O)O)c2ccccc2)cc1 .
Reply: 120 to 125 °C

Ask: Give the measured melting point of O=C1NC(=O)C2(CCc3cc(F)ccc32)N1 (racemic) .
Reply: > 260 °C

Ask: Give the measured melting point of CCc1ccccc1NC(Nc1ccccc1CC)Nc1ccccc1CC .
Reply: 76 to 78 °C

Ask: Give the measured melting point of CCCc1nc(C)c(C=O)n1Cc1ccc(-c2ccccc2C(=O)O)cc1 .
Reply: 243 to 245 °C

Ask: Give the measured melting point of COC(=O)N1CCc2onc(OC)c2C1 .
Reply: 58 to 60 °C
